Reported phosphorylation enrichment values for the following sequences.
TARGET DESC: MERTK (UniProt Q12866)
Sequence (Q12866 whole entry, looked up): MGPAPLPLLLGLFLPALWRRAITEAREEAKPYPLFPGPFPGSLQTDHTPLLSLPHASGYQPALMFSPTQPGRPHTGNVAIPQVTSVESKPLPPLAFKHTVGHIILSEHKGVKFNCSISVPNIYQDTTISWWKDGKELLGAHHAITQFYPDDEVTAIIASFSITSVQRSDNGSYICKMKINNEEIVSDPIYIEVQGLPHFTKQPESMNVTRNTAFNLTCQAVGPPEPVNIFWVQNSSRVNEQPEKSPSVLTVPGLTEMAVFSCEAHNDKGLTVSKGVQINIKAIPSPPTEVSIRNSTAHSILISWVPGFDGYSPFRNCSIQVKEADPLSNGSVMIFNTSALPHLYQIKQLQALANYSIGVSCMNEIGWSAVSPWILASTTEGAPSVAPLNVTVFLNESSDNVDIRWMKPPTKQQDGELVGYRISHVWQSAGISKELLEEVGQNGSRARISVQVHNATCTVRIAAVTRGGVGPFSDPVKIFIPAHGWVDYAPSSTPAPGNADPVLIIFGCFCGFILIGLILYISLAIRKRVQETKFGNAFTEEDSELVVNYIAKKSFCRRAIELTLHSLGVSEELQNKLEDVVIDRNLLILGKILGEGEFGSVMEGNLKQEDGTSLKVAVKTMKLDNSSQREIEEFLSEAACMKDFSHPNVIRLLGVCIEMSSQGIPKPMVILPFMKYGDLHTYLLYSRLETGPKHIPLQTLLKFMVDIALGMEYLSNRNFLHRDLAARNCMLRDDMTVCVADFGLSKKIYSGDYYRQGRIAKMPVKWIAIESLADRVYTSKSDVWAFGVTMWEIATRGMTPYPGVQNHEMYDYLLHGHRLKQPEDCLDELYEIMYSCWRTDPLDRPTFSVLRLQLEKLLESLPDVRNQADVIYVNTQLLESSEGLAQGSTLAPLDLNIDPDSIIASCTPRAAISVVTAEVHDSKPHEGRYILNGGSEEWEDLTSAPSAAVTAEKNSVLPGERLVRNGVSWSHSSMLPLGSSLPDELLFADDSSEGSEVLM
EXPERIMENT SUMMARY: phosphorylation enrichment, bacterial display (enrichment ratio); higher = better substrate or ligand; peptides without Tyr show the background;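 also: 11-residue human phosphosite peptides and single-mutation variants displayed on the E. coli surface, counted by deep sequencing, each peptide's frequency after selection divided by its frequency in the unselected input library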;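 also: frequency after pTyr selection over input frequency; kinase dosed for 20-30% of maximal phosphorylation in three min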
Please state the value as a number alone, without comment.

CONSTRUCT SEQUENCE: KFGTNYRVGSS [CPO_Y278_YF]
RESULT TYPE: phosphorylation enrichment
OBSERVED RESULT: 0.508
//
CONSTRUCT SEQUENCE: CDIPRYIVSQL [MAST2_Y461]
RESULT TYPE: phosphorylation enrichment
OBSERVED RESULT: 0.501
//
CONSTRUCT SEQUENCE: EAESWYQTKYE [KRT75_Y342]
RESULT TYPE: phosphorylation enrichment
OBSERVED RESULT: 0.505
//
CONSTRUCT SEQUENCE: SDYYAYSPVRE [H6PD_Y449]
RESULT TYPE: phosphorylation enrichment
OBSERVED RESULT: 10.7
//
CONSTRUCT SEQUENCE: KDHPDYKYQRR [SOX10_Y171_P175R]
RESULT TYPE: phosphorylation enrichment
OBSERVED RESULT: 0.349
//
CONSTRUCT SEQUENCE: VYYYSYLLKNH [PTEN_Y180]
RESULT TYPE: phosphorylation enrichment
OBSERVED RESULT: 3.89
//
CONSTRUCT SEQUENCE: SISLKYEGRVF [ABL1_Y167_R166K_YF]
RESULT TYPE: phosphorylation enrichment
OBSERVED RESULT: 0.382
//
CONSTRUCT SEQUENCE: RLLVVYPWNQR [HBB_Y36_T39N]
RESULT TYPE: phosphorylation enrichment
OBSERVED RESULT: 0.636
//
CONSTRUCT SEQUENCE: PIDLYYLMDLS [ITGB2_Y131]
RESULT TYPE: phosphorylation enrichment
OBSERVED RESULT: 13.3
//
CONSTRUCT SEQUENCE: GSSKIYFLHPD [TLR5_Y108]
RESULT TYPE: phosphorylation enrichment
OBSERVED RESULT: 2.89

Per the records, this sequence ( CTTIHYNYMSN [TP53_Y234_C238S] ) has phosphorylation enrichment equal to 0.502

Per the records, this sequence ( DCAAIYGNEPD [AKR1A1_Y50_E55D] ) has phosphorylation enrichment equal to 0.585

Per the records, this sequence ( KNNDGYIDYAE [MCFD2_Y135] ) has phosphorylation enrichment equal to 0.474

Per the records, this sequence ( KLFFIYTPGTT [SLC27A4_Y245_S247P_YF] ) has phosphorylation enrichment equal to 0.363

Per the records, this sequence ( YDCGMYSHLQG [LGR4_Y848] ) has phosphorylation enrichment equal to 7.03

Per the records, this sequence ( SVTCTFSPALN [TP53_Y126_Y126F] ) has phosphorylation enrichment equal to 0.515

Per the records, this sequence ( PDGHEYIFVDP [PDGFRA_Y572_YF] ) has phosphorylation enrichment equal to 0.311
